target: human ghrelin receptor (hGHS-R1a) (Homo sapiens); construct: host or cells: CHO-K1 co-expressing Gα16 and mitochondrially targeted aequorin; assay: Aequorin functional assay (ghrelin receptor), CHO-K1 cells co-expressing Gα16 and aequorin; assay type: cell-based; conditions: Table 4; functional (agonist) activity; TFA salts unless otherwise noted; read-out: EC50
Sequence (Q92847 whole entry): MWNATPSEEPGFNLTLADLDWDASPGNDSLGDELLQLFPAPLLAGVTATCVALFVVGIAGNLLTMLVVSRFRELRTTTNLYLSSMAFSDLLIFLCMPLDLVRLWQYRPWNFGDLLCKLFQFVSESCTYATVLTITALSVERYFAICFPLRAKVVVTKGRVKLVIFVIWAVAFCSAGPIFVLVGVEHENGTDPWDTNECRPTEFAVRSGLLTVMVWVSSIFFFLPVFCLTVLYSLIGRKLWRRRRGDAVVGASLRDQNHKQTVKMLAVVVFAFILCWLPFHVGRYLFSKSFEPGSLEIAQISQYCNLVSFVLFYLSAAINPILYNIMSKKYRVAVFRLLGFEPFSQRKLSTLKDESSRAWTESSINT
observationType: EC50

q: I would be grateful if you could share the reported EC50 for "COc1ccc(C[C@@H]2NC(=O)C3(CCCC3)NC(=O)[C@H](CC(C)C)NCCOc3ccccc3/C=C/CNC2=O)cc1" .
a: 1 to 100 nM

q: For "CC(C)C[C@@H]1NCCOc2ccccc2/C=C/CNC(=O)[C@H](Cc2cccc(Cl)c2)NC(=O)C2(CCCC2)NC1=O" , what is its reported EC50?
a: 1 to 100 nM

q: Suppose we examine the compound "CC(C)C[C@@H]1NCCOc2ccccc2/C=C/CNC(=O)[C@H](CC(C)C)NC(=O)C2(CCCC2)NC1=O" ; what EC50 value has been reported?
a: 1 to 100 nM

q: // query EC50 value for entry "C[C@@H]1C(=O)N[C@H](Cc2c(F)c(F)c(F)c(F)c2F)C(=O)NCCCc2ccccc2OCCN[C@@H](C2CC2)C(=O)N1C"
a: 1 to 100 nM

q: For "C[C@@H]1C(=O)N[C@H](Cc2ccc(C(F)(F)F)cc2)C(=O)NCCCc2ccccc2OCCN[C@@H](C2CC2)C(=O)N1C" , what is its reported EC50?
a: 1 to 100 nM

q: Record request: EC50 value, item "C[C@@H]1C(=O)N[C@H](Cc2ccccc2)C(=O)NCCCc2ccccc2OCCN2CCCC[C@H]2C(=O)N1C"
a: > 1000 nM

q: Recorded EC50 of "C[C@@H]1C(=O)N[C@H](Cc2ccc(F)cc2)C(=O)NCCCc2ccc(F)cc2OCCN[C@@H](C2CC2)C(=O)N1C" , please.
a: 1 to 100 nM

q: Any idea what EC50 was measured for "CCCC[C@@H]1NCCOc2ccccc2CCCNC(=O)[C@@H](Cc2ccccc2)NC(=O)CN(C)C1=O" ?
a: 100 to 1000 nM

q: Which measured EC50 value corresponds to "CC(C)C[C@@H]1NCCOc2ccccc2CCCNC(=O)[C@H](Cc2ccccc2)NC(=O)C2(CC2)NC1=O" ?
a: 100 to 1000 nM

q: Entry "C[C@@H]1C(=O)N[C@H](Cc2ccc(Cl)cc2Cl)C(=O)NCCCc2ccccc2OCCN[C@@H](C2CC2)C(=O)N1C" : reported EC50 = ?
a: 1 to 100 nM

q: Requested read-out: EC50. Entry: "CC(C)C[C@@H]1NCCOc2ccccc2CCCNC(=O)[C@@H](Cc2ccccc2)NC(=O)C2(CCCC2)NC1=O"
a: 100 to 1000 nM

q: // EC50 lookup, key: CCC(C)[C@@H]1NCCOc2ccccc2/C=C/CNC(=O)[C@H](Cc2cccc(Cl)c2)NC(=O)C2(CCCC2)NC1=O (stereo partly drawn) [345a]
a: 1 to 100 nM

q: Could you tell me which EC50 is on file for CC1C(=O)NC(Cc2ccc(F)cc2)C(=O)NCCCc2ccccc2O[C@H](C)CNC(C2CC2)C(=O)N1C (stereo partly drawn) ?
a: 1 to 100 nM

q: Bench note: what EC50 did "O=C1NC/C=C/c2ccccc2OCCNC2(CCCC2)C(=O)NC2(CCCC2)C(=O)N[C@H]1Cc1ccccc1" show?
a: 1 to 100 nM

q: Which EC50 is listed for "CCC[C@@H]1NCCOc2ccccc2CCCNC(=O)[C@@H](Cc2c[nH]c3ccccc23)NC(=O)CN(C)C1=O" ?
a: 1 to 100 nM

q: // returns reported EC50 for input "C[C@@H]1C(=O)N[C@H](Cc2ccc(F)cc2)C(=O)NCC#Cc2ccccc2OCCN[C@@H](C2CC2)C(=O)N1C"
a: 1 to 100 nM

q: What value of EC50 has been recorded for this entry: CCC(C)[C@@H]1NC[C@@H](C)Oc2ccccc2CCCNC(=O)[C@H](Cc2cccc(Cl)c2)NC(=O)C2(CCCC2)NC1=O (stereo partly drawn) [368a]
a: > 1000 nM

q: // returns reported EC50 for input "CC[C@H](C)[C@@H]1NCCOc2ccc(F)cc2CCCNC(=O)[C@H](Cc2cccc(Cl)c2)NC(=O)C2(CCCC2)NC1=O"
a: 100 to 1000 nM

q: Item under review: "CC(C)[C@@H]1NCCOc2ccccc2CCCNC(=O)[C@H](Cc2ccccc2)NC(=O)C2(CCCC2)NC1=O" . Reported EC50?
a: 100 to 1000 nM

q: Requested read-out: EC50. Entry: CCC(C)C1NCCOc2ccccc2CCCNC(=O)C(Cc2ccccc2)NC(=O)C(C)NC1=O (stereo not drawn)
a: 100 to 1000 nM

q: Need EC50 of CCC(C)C1NCCOc2ccccc2CCCNC(=O)C(Cc2ccc(F)cc2)NC(=O)C(C)N(C)C1=O (stereo not drawn) , thanks.
a: 1 to 100 nM

q: Query: EC50; subject: "C[C@@H]1C(=O)N[C@H](Cc2ccc(Cl)cc2)C(=O)NCCCc2ccccc2OCCN[C@@H](C2CC2)C(=O)N1C"
a: 1 to 100 nM

q: Look up EC50 for this compound: "CC(C)[C@@H]1NCCOc2ccccc2/C=C/CNC(=O)[C@H](Cc2ccccc2)NC(=O)C2(CCOCC2)NC1=O"
a: 100 to 1000 nM

q: Please report the recorded EC50 for CCC(C)[C@@H]1NCCOc2ccccc2CCCNC(=O)[C@@H](Cc2ccc(OC)cc2)NC(=O)[C@@H](C)N(C)C1=O (stereo partly drawn) .
a: 1 to 100 nM

q: Which EC50 reading was recorded for the compound CC1CNC(C2CC2)C(=O)N(C)C(C)C(=O)NC(Cc2ccc(F)cc2)C(=O)NCCCc2ccccc2O1 (stereo not drawn) ?
a: 1 to 100 nM

q: If you can, please state the reported EC50 value of C[C@@H]1C(=O)N[C@H](Cc2ccc(F)cc2)C(=O)NCCCc2ncccc2OCCN[C@@H](C2CC2)C(=O)N1C [306a] .
a: 1 to 100 nM

q: For "C[C@@H]1C(=O)N[C@H](Cc2ccc(F)cc2)C(=O)NCCCc2cc(NS(C)(=O)=O)ccc2OCCN[C@@H](C2CC2)C(=O)N1C" , what is its reported EC50?
a: 1 to 100 nM
